# tested.system: MASP-2 CCP2-SP (Homo sapiens (Human))
# assay.overview: MASP-2 co-crystallization, X-ray crystallography and structure analysis (H-bonds, van der Waals contacts)
# run.conditions: Table A7-2; between pharmacophore elements of the bound compound
reported.property: Pharmacophore torsion angle a(O1, O2, N2, CA4)

>  <compound>
Cc1nc(N)ccc1CNC(=O)[C@H](C)NC(=O)[C@H]1C[C@H](Cc2ccc(-c3ccccc3)cc2)CN1

>  <tested.system>
MASP-2 CCP2-SP (Homo sapiens (Human))

>  <value.observed>
119.61

$$$$
>  <compound>
Cc1nc(N)ccc1CNC(=O)[C@H](C)NC(=O)[C@H]1C[C@@H](c2cccc3ccccc23)CCN1.Cl.Cl [1297_4]

>  <tested.system>
MASP-2 CCP2-SP (Homo sapiens (Human))

>  <value.observed>
105.94

$$$$
>  <compound>
Cc1nc(N)ccc1CNC(=O)[C@H](C)NC(=O)[C@H]1C[C@H](Cc2cccc(-c3ccccc3)c2)CN1

>  <tested.system>
MASP-2 CCP2-SP (Homo sapiens (Human))

>  <value.observed>
102.90

$$$$
>  <compound>
Cc1nc(N)ccc1CNC(=O)C(C)NC(=O)C1CC(c2cccc3ccccc23)CCN1.Cl.Cl (stereo not shown) [1297_6]

>  <tested.system>
MASP-2 CCP2-SP (Homo sapiens (Human))

>  <value.observed>
109.63

$$$$
>  <compound>
Cc1nc(N)ccc1CNC(=O)[C@H](C)NC(=O)[C@H]1C[C@@H](c2cccc3ccccc23)CCN1.Cl.Cl [1297_2]

>  <tested.system>
MASP-2 CCP2-SP (Homo sapiens (Human))

>  <value.observed>
106.20

$$$$
>  <compound>
C[C@H](NC(=O)[C@@H](CCc1ccccc1)NCc1ccc(N2CCOCC2)cc1)C(=O)NCc1ccc(C(=N)N)cc1

>  <tested.system>
MASP-2 CCP2-SP (Homo sapiens (Human))

>  <value.observed>
155.91

$$$$
>  <compound>
Cc1nc(N)ccc1CNC(=O)C(C)NC(=O)C1CC(c2cccc3ccccc23)CCN1.Cl.Cl (stereo not shown) [1297_3]

>  <tested.system>
MASP-2 CCP2-SP (Homo sapiens (Human))

>  <value.observed>
108.64

$$$$

----------
# tested.system: MASP-2 CCP2-SP (Homo sapiens (Human))
# assay.overview: MASP-2 co-crystallization, X-ray crystallography and structure analysis (H-bonds, van der Waals contacts)
# run.conditions: Table A6-1 pharmacophore angle
Counter-ions that a name gives are not always drawn.
Catalogue of compounds with associated a(O1, O2, H4)

>  <compound>
CC(=O)Nc1ccc(CCN[C@H](CCc2ccccc2)C(=O)N[C@@H](C)C(=O)NCc2ccc(N)nc2C)cc1 [compound 1368, Dihydrochloride]

>  <a(O1, O2, H4)>
127.75

$$$$
>  <compound>
Cc1nc(N)ccc1CNC(=O)C(C)NC(=O)[C@H]1C[C@H](c2cccc(-c3ccccc3)c2)CN1 (stereo in doubt) [compound 1360]

>  <a(O1, O2, H4)>
132.69

$$$$
>  <compound>
Cc1cc(Cl)cc(CNC(=O)[C@H](C)NC(=O)[C@H]2C[C@H](Cc3ccccc3)CN2)c1O [compound 1307]

>  <a(O1, O2, H4)>
126.83

$$$$

----------
Pharmacophore protein distance to MET_658 (first MET_658 column) by entry:
# tested.system: MASP-2 CCP2-SP (Homo sapiens (Human), UniProt O00187)
# Sequence (O00187 445-686): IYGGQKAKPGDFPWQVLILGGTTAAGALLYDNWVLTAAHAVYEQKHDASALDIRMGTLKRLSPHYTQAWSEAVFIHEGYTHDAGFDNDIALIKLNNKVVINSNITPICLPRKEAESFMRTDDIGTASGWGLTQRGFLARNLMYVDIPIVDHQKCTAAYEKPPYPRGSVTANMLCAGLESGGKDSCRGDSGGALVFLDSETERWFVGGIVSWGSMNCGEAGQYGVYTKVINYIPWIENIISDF
# Sequence (O00187 364-432 partner): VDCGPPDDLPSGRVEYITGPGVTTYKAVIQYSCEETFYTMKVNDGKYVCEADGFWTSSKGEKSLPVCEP
# assay.overview: MASP-2 co-crystallization, X-ray crystallography and structure analysis (H-bonds, van der Waals contacts)
# run.conditions: Table A8-6; 6th residue column; nearest protein atom in cell to the left
reported.property: Pharmacophore protein distance to MET_658 (first MET_658 column)

>  <compound>
C[C@H](NC(=O)[C@H]1C[C@@H](c2ccccc2)CN1)C(=O)NCc1ccc(C(=N)N)cc1

>  <tested.system>
MASP-2 CCP2-SP (Homo sapiens (Human), UniProt O00187)

>  <value.observed>
2.38

$$$$
>  <compound>
C[C@H](NC(=O)[C@H](N)CCc1ccccc1)C(=O)NCc1ccc(N)nc1.Cl.Cl [1007_2]

>  <tested.system>
MASP-2 CCP2-SP (Homo sapiens (Human), UniProt O00187)

>  <value.observed>
2.59

$$$$
>  <compound>
N=C(N)c1ccc(CNC(=O)[C@@H]2CCN2C(=O)[C@H]2Cc3ccccc3CN2)cc1

>  <tested.system>
MASP-2 CCP2-SP (Homo sapiens (Human), UniProt O00187)

>  <value.observed>
2.86

$$$$
>  <compound>
C[C@H](NC(=O)[C@H](N)C1Cc2ccccc2C1)C(=O)NCc1ccc2c(N)nccc2c1.Cl.Cl [1088_A]

>  <tested.system>
MASP-2 CCP2-SP (Homo sapiens (Human), UniProt O00187)

>  <value.observed>
3.04

$$$$
>  <compound>
C[C@H](NC(=O)[C@H](N)CCc1cc(Cl)cc(Cl)c1)C(=O)NCc1ccc(C(=N)N)cc1

>  <tested.system>
MASP-2 CCP2-SP (Homo sapiens (Human), UniProt O00187)

>  <value.observed>
1.45

$$$$
>  <compound>
C[C@H](NC(=O)[C@H](N)CCCc1ccccc1)C(=O)NCc1ccc(C(=N)N)cc1.Cl.Cl [1042_2]

>  <tested.system>
MASP-2 CCP2-SP (Homo sapiens (Human), UniProt O00187)

>  <value.observed>
1.07

$$$$
>  <compound>
C[C@H](NC(=O)[C@H]1C[C@@H](c2ccccc2)CN1)C(=O)NCc1ccc2c(N)nccc2c1.Cl.Cl [1089_B]

>  <tested.system>
MASP-2 CCP2-SP (Homo sapiens (Human), UniProt O00187)

>  <value.observed>
2.61

$$$$
>  <compound>
O=c1oc(-c2ccccc2[N+](=O)[O-])nc2ccccc12

>  <tested.system>
MASP-2 CCP2-SP (Homo sapiens (Human), UniProt O00187)

>  <value.observed>
2.13

$$$$

----------
# tested.system: UniProtKB O00187
# assay.overview: MASP-2 co-crystallization, X-ray crystallography and structure analysis (H-bonds, van der Waals contacts)
# Parameters: unit not given beside the values
# run.conditions: Table A5-1 pharmacophore: distance between elements, S2/S1 region

>  <compound>
C[C@H](NC(=O)[C@@H](CCc1ccccc1)NCc1ccc(N2CCOCC2)cc1)C(=O)NCc1ccc(C(=N)N)cc1 [compound 1149]

>  <d(CA6,O1)>
7.04

$$$$
>  <compound>
Cc1cnc(NCCc2ccccc2)c(=O)n1CC(=O)NCc1ccc2nc(N)[nH]c2c1 [compound 1492]

>  <d(CA6,O1)>
3.43

$$$$
>  <compound>
O=c1oc(-c2ccccc2[N+](=O)[O-])nc2ccccc12 [compound 14]

>  <d(CA6,O1)>
7.02

$$$$
>  <compound>
CNC(=O)c1ccc2c(=O)n(Cc3ccccc3)c(=O)n(CC(=O)NCc3ccc(C(=N)N)cc3)c2c1 [compound 2018]

>  <d(CA6,O1)>
2.73

$$$$

----------
# tested.system: MASP-2 CCP2-SP (Homo sapiens (Human))
# assay.overview: MASP-2 co-crystallization, X-ray crystallography and structure analysis (H-bonds, van der Waals contacts)
# run.conditions: Table A2-14; MASP-2 SER 657 C; columns c12-c13 (inferred)
# Text: This example illustrates the preparation of recombinant MASP-2 protein, based on UniProt O00187, human mannan-binding lectin serine protease 2. Expression constructs for human MASP-2 CCP2-SP and CCP2-SP-6HIS were generated for recombinant expression in E. coli cells. […]
# Lookup of reported van der Waals contact distance SER 657 atom C keyed by entry
reported.property: van der Waals contact distance SER 657 atom C

>  <mol>
C[C@H](NC(=O)c1cc(-c2ccccc2)c[nH]1)C(=O)NCc1ccc(C(=N)N)cc1

>  <value.observed>
3.82

$$$$
>  <mol>
N=C(N)c1ccc(CNC(=O)[C@@H]2CCN2C(=O)[C@H]2Cc3ccccc3CN2)cc1

>  <value.observed>
3.51

$$$$
>  <mol>
CNC(=O)c1ccc2c(=O)n(Cc3ccccc3)c(=O)n(CC(=O)NCc3ccc(C(=N)N)cc3)c2c1

>  <value.observed>
3.7

$$$$
>  <mol>
C[C@H](NC(=O)[C@H]1C[C@H](c2ccccc2)CN1)C(=O)NCc1ccc(C(=N)N)cc1

>  <value.observed>
3.57

$$$$

----------
# tested.system: MASP-2 CCP2-SP (Homo sapiens (Human), UniProt O00187)
# assay.overview: MASP-2 co-crystallization, X-ray crystallography and structure analysis (H-bonds, van der Waals contacts)
# Parameters: unit not given beside the values
# run.conditions: Table A2-2
Structures can show the parent of a compound that is named as a salt.
reported.property: van der Waals contact distance, MASP-2 GLY 528 atom CA

>  <molecule>
C[C@H](NC(=O)[C@H]1C[C@H](Cc2ccccc2)CN1)C(=O)NCc1cnc2c(c1)c(Cl)cn2C [compound 1450, Dihydrochloride]

>  <value.observed>
3.89

$$$$
>  <molecule>
Cc1nc(N)ccc1CNC(=O)[C@H](C)NC(=O)[C@H]1C[C@H](Cc2ccccc2Br)CN1 [compound 1372, Di-trifluoroacetate salt]

>  <value.observed>
3.83

$$$$
>  <molecule>
Cc1nc(N)ccc1CNC(=O)[C@H](C)NC(=O)[C@H]1C[C@H](Cc2ccccc2-c2ccccc2)CN1 [compound 1373, Di-trifluoroacetate salt]

>  <value.observed>
3.79

$$$$
>  <molecule>
Cc1nc(N)ccc1CNC(=O)[C@H](C)NC(=O)[C@H]1C[C@H](Cc2ccccc2)CN1

>  <value.observed>
3.79

$$$$
>  <molecule>
C[C@H](NC(=O)[C@H]1C[C@H](Cc2ccccc2)CN1)C(=O)NCc1cc(Cl)ccc1-n1cnnn1 [compound 1371, Hydrochloride]

>  <value.observed>
3.8

$$$$
>  <molecule>
Cc1cc(Cl)cc(CNC(=O)[C@H](C)NC(=O)[C@H]2C[C@H](Cc3ccccc3)CN2)c1O

>  <value.observed>
3.75

$$$$
>  <molecule>
Cc1nc(N)ccc1CNC(=O)[C@H](C)NC(=O)[C@H]1C[C@@H](c2cccc3ccccc23)CCN1

>  <value.observed>
3.76

$$$$
>  <molecule>
Cc1nc(N)ccc1CNC(=O)[C@H](C)NC(=O)[C@H]1C[C@@H](c2ccccc2)CCN1C

>  <value.observed>
3.71

$$$$
>  <molecule>
Cc1nc(N)ccc1CNC(=O)[C@H](C)NC(=O)[C@H]1C[C@@H](c2ccccc2)CCN1CCC(=O)O [compound 1411, Trifluoroacetate salt]

>  <value.observed>
3.85

$$$$
